Target: excitatory amino acid transporter 4 (EAAT4; SLC1A6) (Homo sapiens, UniProt P48664)
Sequence (P48664 whole entry, the tested form may be a part): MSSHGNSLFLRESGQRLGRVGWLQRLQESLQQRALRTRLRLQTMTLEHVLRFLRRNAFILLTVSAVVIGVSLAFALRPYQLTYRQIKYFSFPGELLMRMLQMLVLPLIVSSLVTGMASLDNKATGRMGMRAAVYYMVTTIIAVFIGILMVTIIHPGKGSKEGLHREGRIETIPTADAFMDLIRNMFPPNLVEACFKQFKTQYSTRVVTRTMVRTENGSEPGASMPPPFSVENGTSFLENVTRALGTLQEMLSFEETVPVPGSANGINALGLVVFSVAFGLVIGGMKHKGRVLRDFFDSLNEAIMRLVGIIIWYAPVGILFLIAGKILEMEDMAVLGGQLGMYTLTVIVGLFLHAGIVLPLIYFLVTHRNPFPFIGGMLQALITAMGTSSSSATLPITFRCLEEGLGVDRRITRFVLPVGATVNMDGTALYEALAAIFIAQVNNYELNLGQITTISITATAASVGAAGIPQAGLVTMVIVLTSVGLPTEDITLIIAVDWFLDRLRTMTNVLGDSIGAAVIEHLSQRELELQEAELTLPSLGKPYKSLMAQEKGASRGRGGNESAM
Test: EAAT4 inhibition: glutamate uptake into EAAT4-HEK cells
Format: cell-based
Settings: with consideration of cytotoxicity
quantity-kind: EAAT4 inhibitor

> print(dat)
                                   molecule           reported.value
1  Clc1ccc(C(Cn2ccnc2)OCc2ccsc2Cl)c(Cl)c1 (stereo not drawn) [Tioconazole, tioconazole]  non-inhibitors of EAAT4
2  CSc1ccc2c(c1)N(CCC1CCCCN1C)c1ccccc1S2 (stereo not drawn) [Thioridazine, thioridazine]  non-inhibitors of EAAT4
3  CN1CCN(C2=Nc3cc(Cl)ccc3Nc3ccccc32)CC1 [Clozapine, clozapine]  non-inhibitors of EAAT4
